Listed compounds paired with reported LD50 at 336 h
Test: Acute toxicity in mice
Settings: mouse, in vivo, intravenous, observation time: 14 days, read-out: LD50 i.v.

# compound, unit.abbrev, LD50 at 336 h
rows = [
    ("CC1(C)C(=O)N(CCCCNCCN2C(=O)c3ccccc3C(C)(C)C2=O)C(=O)c2ccccc21 [J]", "mg/kg", 10.5),
    ("CC1(C)C(=O)N(CCNCCN2C(=O)c3ccccc3C(C)(C)C2=O)C(=O)c2ccccc21 [I]", "mg/kg", 15),
]

---

The compounds listed here are annotated with their ED50.
System: chloroform-induced ventricular fibrillation in mice
Assay: Antiarrhythmic activity against chloroform-induced ventricular fibrillation in mice
Format: in vivo
Conditions: Mus musculus, iv, 1 minute before inducing ventricular fibrillation; male mice 20-25 gm; read-out: ED50 (dose which reduces the number of animals which show fibrillations by 50%)

# mol, ED50
data = [
    ("CC1(C)C(=O)N(CCCNCCCN2C(=O)c3ccccc3C(C)(C)C2=O)C(=O)c2ccccc21", "2.5 mg/kg"),
    ("CC1(C)C(=O)N(CCCCNCCCN2C(=O)c3ccccc3C(C)(C)C2=O)C(=O)c2ccccc21", "3 mg/kg"),
    ("CN(CCCN1C(=O)c2ccccc2C(C)(C)C1=O)CCCN1C(=O)c2ccccc2C(C)(C)C1=O", "1.2 mg/kg"),
    ("CC1(C)C(=O)N(CCCNCCN2C(=O)c3ccccc3C(C)(C)C2=O)C(=O)c2ccccc21", "4.7 mg/kg"),
    ("CC1(C)C(=O)N(CCCCNCCN2C(=O)c3ccccc3C(C)(C)C2=O)C(=O)c2ccccc21", "2.8 mg/kg"),
    ("CN(CCN1C(=O)c2ccccc2C(C)(C)C1=O)CCN1C(=O)c2ccccc2C(C)(C)C1=O", "4.6 mg/kg"),
    ("COc1ccc2c(c1)C(=O)N(CCN(C)CCCN1C(=O)c3ccccc3C(C)(C)C1=O)C(=O)C2(C)C", "3.6 mg/kg"),
    ("CC1(C)C(=O)N(CCNCCN2C(=O)c3ccccc3C(C)(C)C2=O)C(=O)c2ccccc21", "4.7 mg/kg"),
    ("CCN(CCCN1C(=O)c2ccccc2C(C)(C)C1=O)CCCN1C(=O)c2ccccc2C(C)(C)C1=O", "0.5 mg/kg"),
]
